Tested on: flea aminopeptidase
TEST_DETAILS: Leu-AMC cleavage by serine protease-depleted flea midgut lysate
Format: biochemical
TEST_PARAMETERS: 1 mM pefabloc, 1 mg/ml trypsin/chymotrypsin inhibitor, 1 mg/ml trypsin inhibitor, 1 mM TPCK, 1 μg/ml pepstatin, 10 μg/ml E-64, 10 μg/ml leupeptin, 10 mM EDTA, 86 μg/ml bestatin; lysate about 1.2 μg and about 12 μg
EXPERIMENTAL_READOUT: inhibition of the flea protease that cleaved Leu-AMC

- Cc1ccc(S(=O)(=O)N[C@@H](Cc2ccccc2)C(=O)CCl)cc1: Only bestatin inhibited
- Cl.NCCc1ccc(S(=O)(=O)F)cc1: Only bestatin inhibited
- CC(C)CC(NC(=O)C1OC1C(=O)O)C(=O)NCCCCNC(=N)N (stereo not shown): Only bestatin inhibited
